System: E. coli Uridine-diphosphate-N-acetylmuramoyl-L-alanine: D-glutamate liease, MurD (Escherichia coli)
Sequence (P14900 whole entry): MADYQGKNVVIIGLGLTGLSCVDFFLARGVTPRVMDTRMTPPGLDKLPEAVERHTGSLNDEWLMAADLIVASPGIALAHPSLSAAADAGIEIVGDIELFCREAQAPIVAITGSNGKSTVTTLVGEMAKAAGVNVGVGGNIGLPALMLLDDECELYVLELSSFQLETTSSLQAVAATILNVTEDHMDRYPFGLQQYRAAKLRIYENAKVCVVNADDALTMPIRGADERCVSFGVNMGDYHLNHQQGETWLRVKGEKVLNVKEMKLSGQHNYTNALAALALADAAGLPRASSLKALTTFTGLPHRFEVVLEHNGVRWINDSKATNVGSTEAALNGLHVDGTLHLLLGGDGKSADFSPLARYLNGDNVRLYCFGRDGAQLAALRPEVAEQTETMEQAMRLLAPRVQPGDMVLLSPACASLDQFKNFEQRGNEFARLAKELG
Test details: biochemical
Stated conditions: (E) E. coli enzyme
Entries and their IC50

[[record]]
smiles_entry = "COc1cccc(C2=C(O)/C(=C/c3cccc4ccccc34)OC2=O)c1"
endpoint_label = "IC50"
observed_value = "> 72.6 µM"

[[record]]
smiles_entry = "O=C1O/C(=C\\c2ccc3ccccc3c2)C(O)=C1c1cccc2ccccc12"
endpoint_label = "IC50"
observed_value = "> 68.6 µM"

[[record]]
smiles_entry = "O=C1O/C(=C\\c2ccc(-c3ccccc3)cc2)C(O)=C1c1ccc(Cl)c(Cl)c1"
endpoint_label = "IC50"
observed_value = "51.3 µM"

[[record]]
smiles_entry = "O=C1O/C(=C\\c2cccnc2)C(O)=C1c1ccc(-c2ccccc2)cc1"
endpoint_label = "IC50"
observed_value = "> 73.2 µM"

[[record]]
smiles_entry = "O=C1O/C(=C\\c2cccc(C(F)(F)F)c2Cl)C(O)=C1c1ccc(-c2ccccc2)cc1"
endpoint_label = "IC50"
observed_value = "> 56.5 µM"

[[record]]
smiles_entry = "O=C1O/C(=C\\c2cccc3ccccc23)C(O)=C1c1ccc(-c2ccccc2)cc1"
endpoint_label = "IC50"
observed_value = "> 64 µM"

[[record]]
smiles_entry = "O=C1O/C(=C\\c2cc(C(F)(F)F)ccc2Cl)C(O)=C1c1ccc(-c2ccccc2)cc1"
endpoint_label = "IC50"
observed_value = "45.2 µM"

[[record]]
smiles_entry = "CCOc1ccc(-c2ccc(C3=C(O)/C(=C/c4cccc(C(F)(F)F)c4Cl)OC3=O)cc2)cc1"
endpoint_label = "IC50"
observed_value = "> 51.3 µM"

[[record]]
smiles_entry = "CCCc1ccc(-c2ccc(C3=C(O)/C(=C/c4cc(C(F)(F)F)ccc4Cl)OC3=O)cc2)cc1"
endpoint_label = "IC50"
observed_value = "> 51.6 µM"

[[record]]
smiles_entry = "O=C1O/C(=C\\c2cc(F)cc(C(F)(F)F)c2)C(O)=C1c1ccc(-c2ccccc2)c(F)c1"
endpoint_label = "IC50"
observed_value = "42.8 µM"


Q: Can you look up the measured IC50 of COc1ccc(C2=C(O)/C(=C/c3ccc4ccccc4c3)OC2=O)cc1 for me?
A: > 72.6 µM

Q: Fill in the blank: the reported IC50 of O=C1O/C(=C\c2ccc(C(F)(F)F)cc2)C(O)=C1c1ccc(-c2ccccc2)cc1 is ____.
A: 29.4 µM

Q: Any idea what its IC50 is? The compound is O=C1O/C(=C\c2ccc(-c3ccccc3C(F)(F)F)cc2)C(O)=C1c1ccccc1C(F)(F)F
A: > 52.5 µM

Q: What value of measured IC50 is listed for CCCc1ccc(-c2ccc(C3=C(O)/C(=C/c4cc(F)cc(C(F)(F)F)c4)OC3=O)cc2)cc1 ?
A: > 53.4 µM

Q: Look at this compound and give its reported IC50. O=C1O/C(=C\c2ccc3ccccc3c2)C(O)=C1c1ccc(-c2ccccc2)cc1
A: > 64 µM

Q: Can you share its IC50? I mean this compound: CC(C)(C)c1ccc(-c2ccc(C3=C(O)/C(=C/c4ccc(Cl)c(C(F)(F)F)c4)OC3=O)cc2)cc1
A: > 50.1 µM
